measured_target: human adenosine A3 receptor (Homo sapiens)
Sequence (P0DMS8 1-318): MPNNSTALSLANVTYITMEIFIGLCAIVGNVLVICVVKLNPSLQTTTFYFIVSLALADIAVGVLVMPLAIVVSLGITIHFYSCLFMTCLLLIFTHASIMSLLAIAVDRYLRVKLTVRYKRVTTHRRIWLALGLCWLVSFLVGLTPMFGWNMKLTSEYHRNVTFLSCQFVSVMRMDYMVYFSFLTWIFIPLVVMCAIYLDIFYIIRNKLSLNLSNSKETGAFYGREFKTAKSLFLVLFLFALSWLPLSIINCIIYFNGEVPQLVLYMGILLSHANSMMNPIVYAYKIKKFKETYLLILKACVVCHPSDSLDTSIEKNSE
experiment_description: Radioligand competition association assay with [3H]34
Type: binding
measurement_kind: koff (s⁻¹)

Example entries begin here.
test_smiles | measurement_units | koff
COc1ccn2c(c1)nc1c2c(=O)n(CC(C)(C)C)c(=O)n1Cc1ccccc1 | s⁻¹ | 0.00011
CCCCCCCn1c(=O)c2c(nc3cc(OC)ccn32)n(Cc2ccccc2)c1=O | s⁻¹ | 6.2e-05
COc1ccn2c(c1)nc1c2c(=O)n(CC2CC2)c(=O)n1Cc1ccccc1 | s⁻¹ | 6e-05
COc1ccn2c(c1)nc1c2c(=O)n(CC2CC2)c(=O)n1Cc1ccc(Cl)c(Cl)c1 | s⁻¹ | 5.3e-05

A = COc1ccn2c(c1)nc1c2c(=O)n(CC2CC2)c(=O)n1Cc1ccc(Cl)cc1
B = COc1ccn2c(c1)nc1c2c(=O)[nH]c(=O)n1Cc1ccccc1
Problem: Determine, for A and B , which has the greater value of koff. Return value: the label identifying the chosen record.
Result: B
(B: 0.014 s⁻¹, A: 0.00082 s⁻¹)

* * *

measured_target: human adenosine A3 receptor (Homo sapiens, UniProt P0DMS8)
experiment_description: Radioligand competition association assay with [3H]34
Type: binding
measurement_kind: kon (M⁻¹ s⁻¹)

A = COc1ccn2c(c1)nc1c2c(=O)n(CC(C)(C)C)c(=O)n1Cc1ccccc1
B = COc1ccn2c(c1)nc1c2c(=O)n(CC2CC2)c(=O)n1Cc1ccc(Cl)cc1
Problem: Rank A against B by their kon values and give the higher one. Indicate your choice by writing its label.
Result: B

* * *

measured_target: human adenosine A3 receptor (Homo sapiens, UniProt P0DMS8)
Sequence (P0DMS8 1-318): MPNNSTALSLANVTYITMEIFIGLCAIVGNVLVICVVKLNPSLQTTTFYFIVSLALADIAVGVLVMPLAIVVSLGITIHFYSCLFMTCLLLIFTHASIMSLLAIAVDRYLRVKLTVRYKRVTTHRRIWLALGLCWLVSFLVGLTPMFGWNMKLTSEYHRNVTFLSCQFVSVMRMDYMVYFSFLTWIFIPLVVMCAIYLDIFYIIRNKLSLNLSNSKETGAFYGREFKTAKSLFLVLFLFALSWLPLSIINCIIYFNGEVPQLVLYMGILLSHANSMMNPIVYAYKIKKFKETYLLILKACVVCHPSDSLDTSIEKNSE
experiment_description: Radioligand competition association assay with [3H]34
Format: binding
measurement_conditions: read-out: RT (residence time)
measurement_kind: residence time (min)

1 = CCCn1c(=O)c2c(nc3cc(OC)ccn32)n(Cc2ccccc2)c1=O [Compound 1]
2 = COc1ccn2c(c1)nc1c2c(=O)n(CC2CC2)c(=O)n1Cc1ccc(Cl)c(Cl)c1 [Compound 31]
3 = COc1ccc(Cn2c(=O)n(CC3CC3)c(=O)c3c2nc2cc(OC)ccn23)cc1 [Compound 28]
4 = COc1ccn2c(c1)nc1c2c(=O)n(CC(C)C)c(=O)n1Cc1ccccc1 [Compound 17]
5 = CCCCCn1c(=O)c2c(nc3cc(OC)ccn32)n(Cc2ccccc2)c1=O [Compound 9]
Problem: // TODO: order the 5 molecules above by residence time, descending Respond with the label ranking, as requested.
Result: 2, 3, 4, 1, 5

P = COc1ccn2c(c1)nc1c2c(=O)n(CC(C)(C)C)c(=O)n1Cc1ccccc1 [Compound 18]
Q = COc1cccc(Cn2c(=O)n(CC3CC3)c(=O)c3c2nc2cc(OC)ccn23)c1 [Compound 27]
Problem: Endpoint returns the identifier whose residence time is numerically larger, either P or Q . Please reply using the label of the selected record.
Result: Q
(Q: 376 min, P: 250 min)

* * *

measured_target: human adenosine A3 receptor (Homo sapiens, UniProt P0DMS8)
experiment_description: Radioligand competition association assay with [3H]34
Format: binding
measurement_kind: koff (s⁻¹)

Below, 3 molecules whose answers are already recorded.
molecule | measured_target | measurement_units | numeric_readout
COc1ccc(Cn2c(=O)n(CC3CC3)c(=O)c3c2nc2cc(OC)ccn23)cc1 [Compound 28] | human adenosine A3 receptor (Homo sapiens, UniProt P0DMS8) | s⁻¹ | 7.8e-05
CCCCCn1c(=O)c2c(nc3cc(OC)ccn32)n(Cc2ccccc2)c1=O [Compound 9] | human adenosine A3 receptor (Homo sapiens, UniProt P0DMS8) | s⁻¹ | 0.0006
COCCn1c(=O)c2c(nc3cc(OC)ccn32)n(Cc2ccccc2)c1=O [Compound 15] | human adenosine A3 receptor (Homo sapiens, UniProt P0DMS8) | s⁻¹ | 0.00063

I = CCCCCCn1c(=O)c2c(nc3cc(OC)ccn32)n(Cc2ccccc2)c1=O [Compound 10]
II = COc1ccn2c(c1)nc1c2c(=O)n(CC2CC2)c(=O)n1Cc1cccc(Cl)c1 [Compound 29]
III = COc1cccc(Cn2c(=O)n(CC3CC3)c(=O)c3c2nc2cc(OC)ccn23)c1 [Compound 27]
IV = COc1ccn2c(c1)nc1c2c(=O)n(CC(C)C)c(=O)n1Cc1ccccc1 [Compound 17]
V = CCCn1c(=O)c2c(nc3cc(OC)ccn32)n(Cc2ccccc2)c1=O [Compound 1]
Problem: Order the 5 molecules from highest to lowest koff. I would appreciate it if you listed the labels in the requested order.
Result: II, V, IV, I, III

* * *

measured_target: UniProt:P0DMS8
experiment_description: Radioligand competition association assay with [3H]34
Type: binding
measurement_conditions: read-out: RT (residence time)
measurement_kind: residence time (min)

compound | measurement_kind | numeric_readout
COc1ccn2c(c1)nc1c2c(=O)n(CC2CC2)c(=O)n1Cc1cccc(Cl)c1 [Compound 29] | residence time | 36

1 = CCCCCCCn1c(=O)c2c(nc3cc(OC)ccn32)n(Cc2ccccc2)c1=O [Compound 11]
2 = COCCn1c(=O)c2c(nc3cc(OC)ccn32)n(Cc2ccccc2)c1=O [Compound 15]
3 = COc1ccn2c(c1)nc1c2c(=O)[nH]c(=O)n1Cc1ccccc1 [Compound 5]
Problem: Put the compounds in ascending order of residence time. // ordering of labels required in reply
Result: 3, 2, 1
(3: 2.2 min, 2: 27 min, 1: 278 min)

* * *

measured_target: human adenosine A3 receptor (Homo sapiens, UniProt P0DMS8)
Sequence (P0DMS8 1-318): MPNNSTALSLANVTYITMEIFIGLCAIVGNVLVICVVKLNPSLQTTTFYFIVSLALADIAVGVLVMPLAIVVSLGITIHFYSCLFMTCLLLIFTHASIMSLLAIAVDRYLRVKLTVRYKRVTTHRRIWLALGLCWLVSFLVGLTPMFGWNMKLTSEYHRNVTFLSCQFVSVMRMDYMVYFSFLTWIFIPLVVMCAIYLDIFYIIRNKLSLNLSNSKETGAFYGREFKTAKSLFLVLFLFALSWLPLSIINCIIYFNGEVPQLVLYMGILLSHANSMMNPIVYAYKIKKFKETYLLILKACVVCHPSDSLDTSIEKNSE
experiment_description: Radioligand competition association assay with [3H]34
Assay type: binding
measurement_kind: kon (M⁻¹ s⁻¹)

Consider the worked cases shown below.
compound | numeric_readout
COc1ccn2c(c1)nc1c2c(=O)n(CC(C)C)c(=O)n1Cc1ccccc1 [Compound 17] | 780000
COCCn1c(=O)c2c(nc3cc(OC)ccn32)n(Cc2ccccc2)c1=O [Compound 15] | 430000

I = COc1cccc(Cn2c(=O)n(CC3CC3)c(=O)c3c2nc2cc(OC)ccn23)c1 [Compound 27]
II = COc1ccn2c(c1)nc1c2c(=O)n(CC2CC2)c(=O)n1Cc1ccccc1 [Compound 2]
Problem: Among I and II , which shows a numerically higher kon result? # respond with the chosen item's label
Result: II
(II: 2.8e+06 M⁻¹ s⁻¹, I: 480000 M⁻¹ s⁻¹)
